Origin of measurements: patent US20220389394A1

# Assayed target: T1, his-tagged recombinant human Flt3 receptor (Sino Biologicals) (human, UniProt P36888 27-541, limits assumed)
# T1 construct: Bought protein; also called human recombinant FLT3; not shown: His tag
# T1 sequence (looked up): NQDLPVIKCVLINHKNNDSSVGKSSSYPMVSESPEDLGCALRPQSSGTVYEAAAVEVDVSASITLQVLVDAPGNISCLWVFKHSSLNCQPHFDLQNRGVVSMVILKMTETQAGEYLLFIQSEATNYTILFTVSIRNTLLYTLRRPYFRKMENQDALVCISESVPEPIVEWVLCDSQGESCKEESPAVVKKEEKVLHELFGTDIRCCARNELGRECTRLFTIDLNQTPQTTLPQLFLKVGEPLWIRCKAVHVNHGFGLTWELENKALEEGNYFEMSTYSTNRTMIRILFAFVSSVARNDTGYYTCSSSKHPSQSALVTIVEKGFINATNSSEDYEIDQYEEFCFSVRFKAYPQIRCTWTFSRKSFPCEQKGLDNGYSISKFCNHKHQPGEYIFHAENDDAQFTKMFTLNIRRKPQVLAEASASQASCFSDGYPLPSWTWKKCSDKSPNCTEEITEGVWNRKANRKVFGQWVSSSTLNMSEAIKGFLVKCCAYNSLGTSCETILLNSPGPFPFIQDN
# Test name: ELISA; His-tagged recombinant human Flt3 on nickel plate, serially diluted Flt3L-Fc, anti-human (H+L)-HRP, 4PL fit
Metric: pEC50
One number for each entry, as −log10 of the molar value.

Please supply the value of reported pEC50 for the item human FLT3-ligand human hingeless IgG1 fusion protein (SEQ ID NO:1) (Fc fusion, also called FLT3L ECD-hingeless hG1; hFLT3L ECD) TQDCSFQHSPISSDFAVKIRELSDYLLQDYPVTVASNLQDEELCGGLWRLVLAQRWMERLKTVAGSKMQGLLERVNTEIHFVTKCAFQPPPSCLRFVQTNISRLLQETSEQLVALKPWITRQNFSRCLELQCQPDSSTLPPPWSPRPLEATAPTAPQGGPSVFLFPPKPKDTLMISRTPEVTCVVVDVSHEDPEVKFNWYVDGVEVHNAKTKPREEQYNSTYRVVSVLTVLHQDWLNGKEYKCKVSNKALPAPIEKTISKAKGQPREPQVYTLPPSREEMTKNQVSLTCLVKGFYPSDIAVEWESNGQPENNYKTTPPVLDSDGSFFLYSKLTVDKSRWQQGNVFSCSVMHEALHNHYTQKSLSLSPGK
9.92
